test system: LNCaP; experiment: Antiproliferative activity against AR-positive human LNCAP cells incubated for 7 days in presence of AR agonist, R1881 by WST-8 assay; type: functional, cell-based; settings: 168 h
Quantity Kind: IC50

INSERT INTO results (compound, assay_system, test_result) VALUES
  ('CNC(=O)c1ccc(N2C(=S)N(c3ccc(C#N)c(C(F)(F)F)c3)C(=O)C2(C)C)cc1F [ENZALUTAMIDE]', 'LNCaP', '151 nM'),
  ('CC1(C)[C@H](NC(=O)c2cnn(CCO)c2)C(C)(C)[C@H]1Oc1ccc(C#N)c(Cl)c1', 'LNCaP', '64.5 nM'),
  ('Cc1cc([C@H](C(=O)N2C[C@H](O)C[C@H]2C(=O)N[C@@H](CC(=O)N2CCC(N3CCC(C#Cc4ccc(C(=O)N[C@H]5C(C)(C)[C@H](Oc6ccc(C#N)c(Cl)c6)C5(C)C)cc4)CC3)CC2)c2ccc(-c3scnc3C)cc2)C(C)C)on1', 'LNCaP', '2 nM'),
  ('Cc1cc([C@H](C(=O)N2C[C@H](O)C[C@H]2C(=O)N[C@@H](CC(=O)N2CCC(C#Cc3ccc(C(=O)N[C@H]4C(C)(C)[C@H](Oc5ccc(C#N)c(Cl)c5)C4(C)C)cc3)CC2)c2ccccc2)C(C)C)on1', 'LNCaP', '2 nM');

----------
biological target: von Hippel-Lindau disease tumor suppressor/Androgen receptor (Homo sapiens, UniProt P10275+P40337); test: Protac activity against VHL/AR in AR-positive human LNCAP cells assessed as induction of AR degradation at 0.01 uM incubated for 6 hrs by Western blot analysis relative to control; format: cell-based
Sequence (P10275 whole entry, looked up): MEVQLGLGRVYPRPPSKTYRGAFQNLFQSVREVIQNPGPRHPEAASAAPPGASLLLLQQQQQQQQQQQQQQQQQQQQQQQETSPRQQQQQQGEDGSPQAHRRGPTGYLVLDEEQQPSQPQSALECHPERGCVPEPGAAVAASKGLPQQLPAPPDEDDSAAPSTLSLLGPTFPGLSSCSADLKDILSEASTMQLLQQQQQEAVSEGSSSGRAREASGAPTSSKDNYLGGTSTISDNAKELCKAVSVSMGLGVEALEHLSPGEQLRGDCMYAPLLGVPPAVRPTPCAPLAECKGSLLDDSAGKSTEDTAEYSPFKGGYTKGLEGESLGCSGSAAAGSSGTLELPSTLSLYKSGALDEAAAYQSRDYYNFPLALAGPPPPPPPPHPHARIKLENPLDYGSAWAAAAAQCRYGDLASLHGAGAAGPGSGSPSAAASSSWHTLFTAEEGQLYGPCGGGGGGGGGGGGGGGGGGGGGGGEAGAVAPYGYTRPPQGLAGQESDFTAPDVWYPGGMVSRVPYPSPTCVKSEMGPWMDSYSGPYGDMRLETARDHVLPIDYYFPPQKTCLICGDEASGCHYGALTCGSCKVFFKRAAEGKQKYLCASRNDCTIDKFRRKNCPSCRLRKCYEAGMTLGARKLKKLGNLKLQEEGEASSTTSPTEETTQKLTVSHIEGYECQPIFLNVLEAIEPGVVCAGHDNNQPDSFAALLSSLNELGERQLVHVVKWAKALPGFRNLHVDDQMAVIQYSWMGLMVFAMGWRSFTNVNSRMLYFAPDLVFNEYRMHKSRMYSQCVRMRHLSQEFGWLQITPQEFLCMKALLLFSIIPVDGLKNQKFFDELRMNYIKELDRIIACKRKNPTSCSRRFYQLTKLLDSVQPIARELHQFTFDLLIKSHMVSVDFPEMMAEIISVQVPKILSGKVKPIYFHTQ
Sequence (P40337 whole entry, looked up): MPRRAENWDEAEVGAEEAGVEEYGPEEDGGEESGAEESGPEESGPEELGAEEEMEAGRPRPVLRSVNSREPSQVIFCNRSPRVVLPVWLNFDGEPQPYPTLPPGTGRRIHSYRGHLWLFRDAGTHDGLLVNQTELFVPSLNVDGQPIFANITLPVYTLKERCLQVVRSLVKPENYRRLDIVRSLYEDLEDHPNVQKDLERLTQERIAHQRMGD
Entry flag: true if Activity reaches 40%; false if it does not.

INSERT INTO results (structure, category_label) VALUES
  ('CC(=O)N[C@H](C(=O)N1C[C@H](O)C[C@H]1C(=O)N[C@@H](CC(=O)N1CCC(N2CCC(C#Cc3ccc(C(=O)N[C@H]4C(C)(C)[C@H](Oc5ccc(C#N)c(Cl)c5)C4(C)C)cc3)CC2)CC1)c1ccccc1)C(C)C', 'false'),
  ('Cc1cc([C@H](C(=O)N2C[C@H](O)C[C@H]2C(=O)N[C@@H](CC(=O)N2CCC(C#Cc3ccc(C(=O)N[C@H]4C(C)(C)[C@H](Oc5ccc(C#N)c(Cl)c5)C4(C)C)cc3)CC2)c2ccc(Br)cc2)C(C)C)on1', 'false'),
  ('Cc1cc([C@H](C(=O)N2C[C@H](O)C[C@H]2C(=O)N[C@@H](CC(=O)N2CCC(N3CC(C#Cc4ccc(C(=O)N[C@H]5C(C)(C)[C@H](Oc6ccc(C#N)c(Cl)c6)C5(C)C)cc4)C3)CC2)c2ccccc2)C(C)C)on1', 'false'),
  ('Cc1cc([C@H](C(=O)N2C[C@H](O)C[C@H]2C(=O)N[C@@H](CC(=O)N2CCN(c3ccc(C(=O)N[C@H]4C(C)(C)[C@H](Oc5ccc(C#N)c(Cl)c5)C4(C)C)cc3)CC2)c2ccccc2)C(C)C)on1', 'false'),
  ('C#Cc1ccc([C@H](CC(=O)N2CCC(C#Cc3ccc(C(=O)N[C@H]4C(C)(C)[C@H](Oc5ccc(C#N)c(Cl)c5)C4(C)C)cc3)CC2)NC(=O)[C@@H]2C[C@@H](O)CN2C(=O)[C@@H](c2cc(C)no2)C(C)C)cc1', 'true'),
  ('Cc1cc([C@H](C(=O)N2C[C@H](O)C[C@H]2C(=O)N[C@@H](CC(=O)N2CCC(C#Cc3ccc(C(=O)N[C@H]4C(C)(C)[C@H](Oc5ccc(C#N)c(Cl)c5)C4(C)C)cc3)CC2)c2ccc(F)cc2)C(C)C)on1', 'true'),
  ('Cc1cc([C@H](C(=O)N2C[C@H](O)C[C@H]2C(=O)N[C@@H](CC(=O)N2CCC(C#Cc3ccc(C(=O)N[C@H]4C(C)(C)[C@H](Oc5ccc(C#N)c(Cl)c5)C4(C)C)cc3)CC2)c2ccccc2)C(C)C)on1', 'true'),
  ('Cc1cc([C@H](C(=O)N2C[C@H](O)C[C@H]2C(=O)N[C@@H](CC(=O)N2CCC(c3ccc(C(=O)N[C@H]4C(C)(C)[C@H](Oc5ccc(C#N)c(Cl)c5)C4(C)C)cc3)CC2)c2ccccc2)C(C)C)on1', 'false');

----------
biological target: von Hippel-Lindau disease tumor suppressor/Androgen receptor (Homo sapiens, UniProt P10275+P40337); test: Protac activity against VHL/AR in AR-positive human LNCAP cells assessed as induction of AR degradation at 0.01 uM incubated for 6 hrs by Western blot analysis relative to control; assay type: cell-based
Quantity Kind: Activity (%)

INSERT INTO results (structure, comparative_sign, test_result) VALUES
  ('Cc1cc([C@H](C(=O)N2C[C@H](O)C[C@H]2C(=O)N[C@@H](CC(=O)N2CCC(C#Cc3ccc(C(=O)N[C@H]4C(C)(C)[C@H](Oc5ccc(C#N)c(Cl)c5)C4(C)C)cc3)CC2)c2ccc(-c3scnc3C)cc2)C(C)C)on1', '=', 56),
  ('Cc1cc([C@H](C(=O)N2C[C@H](O)C[C@H]2C(=O)N[C@@H](CC(=O)N2CCC(N3CCC(C#Cc4ccc(C(=O)N[C@H]5C(C)(C)[C@H](Oc6ccc(C#N)c(Cl)c6)C5(C)C)cc4)CC3)CC2)c2ccc(Cl)cc2)C(C)C)on1', '=', 85),
  ('Cc1cc([C@H](C(=O)N2C[C@H](O)C[C@H]2C(=O)N[C@@H](CC(=O)N2CC(N3CCC(C#Cc4ccc(C(=O)N[C@H]5C(C)(C)[C@H](Oc6ccc(C#N)c(Cl)c6)C5(C)C)cc4)CC3)C2)c2ccccc2)C(C)C)on1', '=', 21),
  ('Cc1cc([C@H](C(=O)N2C[C@H](O)C[C@H]2C(=O)N[C@@H](CC(=O)N2CCC(C3CN(c4ccc(C(=O)N[C@H]5C(C)(C)[C@H](Oc6ccc(C#N)c(Cl)c6)C5(C)C)cc4)C3)CC2)c2ccccc2)C(C)C)on1', '=', 48),
  ('CC(=O)N[C@H](C(=O)N1C[C@H](O)C[C@H]1C(=O)N[C@@H](CC(=O)N1CCC(C#Cc2ccc(C(=O)N[C@H]3C(C)(C)[C@H](Oc4ccc(C#N)c(Cl)c4)C3(C)C)cc2)CC1)c1ccccc1)C(C)C', '<', 5),
  ('Cc1cc([C@H](C(=O)N2C[C@H](O)C[C@H]2C(=O)N[C@@H](CC(=O)N2CCC(N3CCC(C#Cc4ccc(C(=O)N[C@H]5C(C)(C)[C@H](Oc6ccc(C#N)c(Cl)c6)C5(C)C)cc4)CC3)CC2)c2ccc(Br)cc2)C(C)C)on1', '=', 45),
  ('Cc1cc([C@H](C(=O)N2C[C@H](O)C[C@H]2C(=O)N[C@@H](CC(=O)N2CCC(N3CCC(C#Cc4ccc(C(=O)N[C@H]5C(C)(C)[C@H](Oc6ccc(C#N)c(Cl)c6)C5(C)C)cc4)CC3)CC2)c2ccc(-c3scnc3C)cc2)C(C)C)on1', '=', 76),
  ('Cc1cc([C@H](C(=O)N2C[C@H](O)C[C@H]2C(=O)N[C@@H](CC(=O)N2CCC(N3CCC(C#Cc4ccc(C(=O)N[C@H]5C(C)(C)[C@H](Oc6ccc(C#N)c(Cl)c6)C5(C)C)cc4)CC3)CC2)c2ccccc2)C(C)C)on1', '=', 62),
  ('Cc1cc([C@H](C(=O)N2C[C@H](O)C[C@H]2C(=O)N[C@@H](CC(=O)N2CCC(C#Cc3ccc(C(=O)N[C@H]4C(C)(C)[C@H](Oc5ccc(C#N)c(Cl)c5)C4(C)C)cc3)CC2)c2ccc(C#N)cc2)C(C)C)on1', '=', 80),
  ('Cc1cc([C@H](C(=O)N2C[C@H](O)C[C@H]2C(=O)N[C@@H](CC(=O)N2CCC(N3CCC(C#Cc4ccc(C(=O)N[C@H]5C(C)(C)[C@H](Oc6ccc(C#N)c(Cl)c6)C5(C)C)cc4)CC3)CC2)c2ccc(C#N)cc2)C(C)C)on1', '=', 81),
  ('Cc1cc([C@H](C(=O)N2C[C@H](O)C[C@H]2C(=O)N[C@@H](CC(=O)N2CCC(C#Cc3ccc(C(=O)N[C@H]4C(C)(C)[C@H](Oc5ccc(C#N)c(Cl)c5)C4(C)C)cc3)CC2)c2ccc(Cl)cc2)C(C)C)on1', '=', 85),
  ('Cc1cc([C@H](C(=O)N2C[C@H](O)C[C@H]2C(=O)N[C@@H](CC(=O)N2CCC(N3CCC(C#Cc4ccc(C(=O)N[C@H]5C(C)(C)[C@H](Oc6ccc(C#N)c(Cl)c6)C5(C)C)cc4)CC3)CC2)c2ccc(F)cc2)C(C)C)on1', '=', 92),
  ('C#Cc1ccc([C@H](CC(=O)N2CCC(N3CCC(C#Cc4ccc(C(=O)N[C@H]5C(C)(C)[C@H](Oc6ccc(C#N)c(Cl)c6)C5(C)C)cc4)CC3)CC2)NC(=O)[C@@H]2C[C@@H](O)CN2C(=O)[C@@H](c2cc(C)no2)C(C)C)cc1', '=', 68);
